target: human recombinant Glo-I enzyme (rhGlo-I) (Homo sapiens, UniProt Q04760); construct: N-terminal Met and 6-His tag (N); purchased R&D Systems; host or cells: E. coli; assay: Glyoxalase-I (Glo-I) enzyme inhibition assay; format: biochemical; conditions: in vitro; compounds classed as inactive
Property name: activity against Glo-I (in words)

Please review the following examples before continuing.
Molecule | activity against Glo-I (in words)
Oc1cc(O)c2c(c1)O[C@H](c1ccc(O)c(O)c1)[C@H](O)C2 [(-)Epicatechin] | inactive
[O-][Cl+2]([O-])O [Chloric acid] | inactive
NC(CO)C(=O)NNCc1ccc(O)c(O)c1O (stereo not shown) [Benserazide, reference compound] | ineffective
Oc1ccc(CC2NCCc3cc(O)c(O)cc32)cc1 (stereo not shown) [Higenamine] | ineffective
O=C(/C=C/c1ccc(O)c(O)c1)O[C@@H]1[C@H](O)C[C@@](O)(C(=O)O)C[C@H]1OC(=O)/C=C/c1ccc(O)c(O)c1 [3,4-diaffeoylquinic acid] | inactive
CC(=NO)C(C)=NO [Dimethylglyoxime] | inactive
O=C(/C=C/c1ccc(O)c(O)c1)O[C@@H]1C[C@@](OC(=O)/C=C/c2ccc(O)c(O)c2)(C(=O)O)C[C@@H](O)[C@@H]1O [cynarine] | inactive
Oc1cc(O)c2c(c1)O[C@H](c1ccc(O)c(O)c1)[C@@H](O)C2 [(+)Catechin] | inactive
COc1ccc(C[C@@H](C)[C@@H](C)Cc2ccc(OC)c(OC)c2)cc1OC [Terameprocol] | inactive
Cc1c(O)c(=O)ccn1C [3-Hydroxy-1,2-dimethyl-4(1h)-pyridone] | inactive

Q: # query: activity against Glo-I (in words) of entry O=c1cccccc1O [Tropolon]
Result: inactive

Q: Entry under review: Oc1cc(O)c2c(c1)O[C@H](c1cc(O)c(O)c(O)c1)[C@@H](O)C2 [Gallocatechin] . Reported activity against Glo-I (in words)?
Result: inactive

###

target: human recombinant Glo-I enzyme (rhGlo-I) (Homo sapiens); construct: N-terminal Met and 6-His tag (N); purchased R&D Systems; host or cells: E. coli; test: Glyoxalase-I (Glo-I) enzyme inhibition assay; type: biochemical; conditions: 25 µM; read-out: Trial three (%inhibtion)
# inhibition at 25 µM annotations
API: value field is a number in %; no unit string.

Compound | Value
CC(/C=C/C(=O)NO)=C\[C@@H](C)C(=O)c1ccc(N(C)C)cc1 [Trichostatin A, reference compound] | 33.7
O=C1c2ccc(O)c(O)c2C(=O)c2c(O)ccc(O)c21 | 43.6
O=C(/C=C/c1ccc(O)c(O)c1)O[C@H]1[C@H](O)[C@@H](O)[C@H](OCCc2ccc(O)c(O)c2)O[C@@H]1CO [Calceolarioside A] | 29.6
C[C@]12CC[C@@H]3c4ccc(O)c(O)c4CC[C@H]3[C@@H]1CC[C@@H]2O [4-hydroxy-estradiol] | 104

Q: What inhibition at 25 µM value was documented for this compound, Cc1ccc(C(=O)c2cc(O)c(O)c([N+](=O)[O-])c2)cc1 [Tolcapone, reference compound] ?
Result: 80.9

Q: Using the record for "O=c1cc(O)cc(/C=C/c2ccc(O)c(O)c2)o1" , report its inhibition at 25 µM.
Result: 43.5

###

target: human recombinant Glo-I enzyme (rhGlo-I) (Homo sapiens); construct: N-terminal Met and 6-His tag (N); purchased R&D Systems; host or cells: E. coli; assay: Glyoxalase-I (Glo-I) enzyme inhibition assay; format: biochemical; conditions: 50 µM; read-out: Trial two (%inhibtion)
Known inhibition at 50 µM of a selection of compounds
In your response, put the unit directly after the numeric value.

Q: Query: inhibition at 50 µM; subject: "O=C1c2ccc(O)c(O)c2C(=O)c2c(O)ccc(O)c21"
Result: 59.9%

Q: inhibition at 50 µM lookup needed for Cc1ccc(C(=O)c2cc(O)c(O)c([N+](=O)[O-])c2)cc1 [Tolcapone, reference compound] , thanks.
Result: 97.6%

Q: I am curious: what inhibition at 50 µM value has been reported for "O=c1cc(O)cc(/C=C/c2ccc(O)c(O)c2)o1" ?
Result: 44.3%

Q: What does the record list as inhibition at 50 µM for O=C(/C=C/c1ccc(O)c(O)c1)O[C@H]1[C@H](O)[C@@H](O)[C@H](OCCc2ccc(O)c(O)c2)O[C@@H]1CO [Calceolarioside A] ?
Result: 53.5%

Q: If you can, please state the reported inhibition at 50 µM value of C[C@]12CC[C@@H]3c4ccc(O)c(O)c4CC[C@H]3[C@@H]1CC[C@@H]2O [4-hydroxy-estradiol] .
Result: 101%

Q: # lookup: inhibition at 50 µM of CC(/C=C/C(=O)NO)=C\[C@@H](C)C(=O)c1ccc(N(C)C)cc1 [Trichostatin A, reference compound]
Result: 51.1%

###

biological target: human recombinant Glo-I enzyme (rhGlo-I) (Homo sapiens); construct: N-terminal Met and 6-His tag (N); purchased R&D Systems; host or cells: E. coli; experiment: Glyoxalase-I (Glo-I) enzyme inhibition assay; assay type: biochemical; settings: 6.25 µM; read-out: Trial three (%inhibtion)
Property name: inhibition at 6.25 µM (%)
Reply with just the number (in %).

Examples with answers:
Compound | Value
C[C@]12CC[C@@H]3c4ccc(O)c(O)c4CC[C@H]3[C@@H]1CC[C@@H]2O [4-hydroxy-estradiol] | 96.1
CC(/C=C/C(=O)NO)=C\[C@@H](C)C(=O)c1ccc(N(C)C)cc1 [Trichostatin A, reference compound] | 14.2

Q: # inhibition at 6.25 µM lookup, item "O=C1c2ccc(O)c(O)c2C(=O)c2c(O)ccc(O)c21"
Result: 33.7

###

molecular target: human recombinant Glo-I enzyme (rhGlo-I) (Homo sapiens); construct: N-terminal Met and 6-His tag (N); purchased R&D Systems; host or cells: E. coli; experiment: Glyoxalase-I (Glo-I) enzyme inhibition assay; type: biochemical; conditions: 12.5 µM; read-out: Trial two (%inhibtion)
Property name: inhibition at 12.5 µM (%)
Output spec: scalar in %, unitless text.

Molecule | Output unit | inhibition at 12.5 µM
Cc1ccc(C(=O)c2cc(O)c(O)c([N+](=O)[O-])c2)cc1 [Tolcapone, reference compound] | % | 60.9
O=C(/C=C/c1ccc(O)c(O)c1)O[C@H]1[C@H](O)[C@@H](O)[C@H](OCCc2ccc(O)c(O)c2)O[C@@H]1CO [Calceolarioside A] | % | 12
CC(/C=C/C(=O)NO)=C\[C@@H](C)C(=O)c1ccc(N(C)C)cc1 [Trichostatin A, reference compound] | % | 25
O=C1c2ccc(O)c(O)c2C(=O)c2c(O)ccc(O)c21 | % | 35.4
O=c1cc(O)cc(/C=C/c2ccc(O)c(O)c2)o1 | % | 19.2

Query molecule follows.
Q: Recorded inhibition at 12.5 µM for C[C@]12CC[C@@H]3c4ccc(O)c(O)c4CC[C@H]3[C@@H]1CC[C@@H]2O [4-hydroxy-estradiol] , please?
Result: 98.7

###

molecular target: human recombinant Glo-I enzyme (rhGlo-I) (Homo sapiens); construct: N-terminal Met and 6-His tag (N); purchased R&D Systems; host or cells: E. coli; experiment: Glyoxalase-I (Glo-I) enzyme inhibition assay; type: biochemical; settings: 25 µM; read-out: Trial two (%inhibtion)
Property name: inhibition at 25 µM

These recorded examples may help you get a feel for the data.
Compound | Value
C[C@]12CC[C@@H]3c4ccc(O)c(O)c4CC[C@H]3[C@@H]1CC[C@@H]2O [4-hydroxy-estradiol] | 102%
O=c1cc(O)cc(/C=C/c2ccc(O)c(O)c2)o1 [Hispidin] | 32.4%
CC(/C=C/C(=O)NO)=C\[C@@H](C)C(=O)c1ccc(N(C)C)cc1 [Trichostatin A, reference compound] | 38.4%
O=C1c2ccc(O)c(O)c2C(=O)c2c(O)ccc(O)c21 [Quinalizarin] | 46.6%
O=C(/C=C/c1ccc(O)c(O)c1)O[C@H]1[C@H](O)[C@@H](O)[C@H](OCCc2ccc(O)c(O)c2)O[C@@H]1CO [Calceolarioside A] | 27.5%

Could you now consider this next compound?
Q: Dear colleague, I am looking for the recorded inhibition at 25 µM of the following compound: Cc1ccc(C(=O)c2cc(O)c(O)c([N+](=O)[O-])c2)cc1 [Tolcapone, reference compound]
Result: 82.1%

###

Target: human recombinant Glo-I enzyme (rhGlo-I) (Homo sapiens, UniProt Q04760)
Construct: N-terminal Met and 6-His tag (N); purchased R&D Systems; host or cells: E. coli
Sequence (Q04760 2-184 limits assumed): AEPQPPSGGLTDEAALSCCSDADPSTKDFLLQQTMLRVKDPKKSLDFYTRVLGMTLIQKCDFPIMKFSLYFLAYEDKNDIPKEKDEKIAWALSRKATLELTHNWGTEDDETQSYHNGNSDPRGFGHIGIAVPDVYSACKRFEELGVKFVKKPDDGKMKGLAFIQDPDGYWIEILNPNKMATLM
Test: Glyoxalase-I (Glo-I) enzyme inhibition assay
Type: biochemical
Settings: 12.5 µM; read-out: Trial one (%inhibtion)
Property name: inhibition at 12.5 µM (%)
Just the number in %, nothing appended.

Consider the following illustrative entries.
Compound | Target under test | Output unit | inhibition at 12.5 µM
Cc1ccc(C(=O)c2cc(O)c(O)c([N+](=O)[O-])c2)cc1 [Tolcapone, reference compound] | human recombinant Glo-I enzyme (rhGlo-I) (Homo sapiens, UniProt Q04760) | % | 54.2
O=C1c2ccc(O)c(O)c2C(=O)c2c(O)ccc(O)c21 [Quinalizarin] | human recombinant Glo-I enzyme (rhGlo-I) (Homo sapiens, UniProt Q04760) | % | 37.2
O=C(/C=C/c1ccc(O)c(O)c1)O[C@H]1[C@H](O)[C@@H](O)[C@H](OCCc2ccc(O)c(O)c2)O[C@@H]1CO [Calceolarioside A] | human recombinant Glo-I enzyme (rhGlo-I) (Homo sapiens, UniProt Q04760) | % | 25.3

Q: Consider the compound shown here: CC(/C=C/C(=O)NO)=C\[C@@H](C)C(=O)c1ccc(N(C)C)cc1 [Trichostatin A, reference compound] What is its recorded inhibition at 12.5 µM?
Result: 29.4

Q: So what's the measured inhibition at 12.5 µM for this one? O=c1cc(O)cc(/C=C/c2ccc(O)c(O)c2)o1 [Hispidin]
Result: 29.5

Q: Looking for the measured inhibition at 12.5 µM of C[C@]12CC[C@@H]3c4ccc(O)c(O)c4CC[C@H]3[C@@H]1CC[C@@H]2O [4-hydroxy-estradiol] , can you help?
Result: 99.8
